Test system: OVCAR-8
procedureSummary: NCI tumour cell line growth inhibition, 48 h
The source made the active and inactive calls. Cut-off read from the data, not from the text of the source: active = GI50 up to about 1.1 µM and inactive = higher.
Would you mind telling me the reported GI50 of each entry?

# example entries with known answers
• CCCCCCCCCCCCC/C=C/[C@@H](O)[C@H](COC1OC(CO)C(OC2OC(CO)C(O)C(OC3(C(=O)O)CC(O)C(NC(C)=O)C(C(O)C(O)CO)O3)C2O)C(O)C1O)N=[N+]=[N-] (some centres undefined) = 21.8 µM (inactive)
• Fc1cccc(Cl)c1C1SCc2nc3ccccc3n21 (centres undefined) = 38.1 µM (inactive)
• C[C@H](CCC(=O)O)[C@H]1CC[C@H]2[C@@H]3[C@@H](O)C[C@@H]4C[C@H](O)CC[C@]4(C)[C@H]3C[C@H](O)[C@]12C = > 100 µM (inactive)

Lab note: next molecule to report on.
Query: Fill in GI50 for record COC(=O)/C=C(C)/C=C/c1c(C)c(C(C)=O)c(C)n1C
Result: > 100 µM (inactive)
